tested on: P12-Ichikawa; experiment: cell viability relative to DMSO control; higher = less cytotoxic; details: RPMI 5 mM glucose + 10% dialyzed FBS; 48 h; 0.00234 µM
experimental endpoint: cell viability (%)

smiles_notation=CN1C(=O)\C(=C/C(=C1/NC2=C(F)C=C(I)C=C2)C(=O)NOCCO)C measured_on=P12-Ichikawa reported_result=105
smiles_notation=O=C1\C=C(/OC2=C1C=CC=C2C3=CC=CC=C3)N4CCOCC4 measured_on=P12-Ichikawa reported_result=84.4
smiles_notation=COc1cc2ncnc(-n3nc(-c4ccccn4)nc3N)c2cc1OC measured_on=P12-Ichikawa reported_result=92.6
smiles_notation=C[C@H]([C@H](O)CCC(C)(C)O)[C@H]1CC[C@@]2(O)C/3=C/C(=O)[C@@H]4C[C@@H](O)[C@@H](O)C[C@]4(C)[C@H]3CC[C@]12C measured_on=P12-Ichikawa reported_result=125

Recorded values, source the supplement of paper PMC11451515.
